tested on: MS2 coat protein; assay: apparent KD of MS2 coat protein; higher = weaker reporter binding; conditions: Eterna round: R107; input ligand: theophylline 2 mM
Entry flag: Criterion met if apparent KD of MS2 coat protein reaches 40 nM; Criterion not met if it does not.

[in] Please tell me: is the sequence GGCCCUGCGAGCGCUCGCAGGGCCGCGGAUACCAGCGAGGUCCAUCGCCCUUGGCAGCCGAACAUGAGGAUCACCCAUGUCGGUA [#1 Same State - Theophylline A Attempt #13 (HarryS)] at or over 40 nM in terms of apparent KD of MS2 coat protein?
[out] Criterion not met

[in] Follow-up item: AAUAUUUGCCACAUGAGGAUCACCCAUGUGCGAGGACCGGUACGGCCGCCACUCGGUCGGUGGUUAAUGAAGAUAAACAAUAAUG [XTryp A #11]
[out] Criterion not met

[in] What do you have for CGAUGCGCAUUAUCCCACUGGUAUGAGUCUCGAGGACCGGUACGGCCGCCACUCGCUACCGUACAUGAGGAUCACCCAUGUAUUA [theeternabot_exclusion_MS2_Trp_A_13] ?
[out] Criterion not met

[in] Try the sequence AUAAGGUAUCUGCUUCAUGGGUGAGCAGAUACCAGCUAGGAAACUAGCCCUUGGCAGCUGCAACAUGAGGAUCACCCAUGUAAUA [(T)'-(M)'-(T1)-(T2)-(M1)-(M2)_Design2]
[out] Criterion met

[in] Moving on to AAAAUAGAAGGAAGACAAAUAGAUACAGAAGGAGCGUAGGAAACUACAGGUAGGUCGCUGGAAAACAUGAGGAUCACCCAUGUAG [SSArg A #22 Slice of Pi Skeleton]
[out] Criterion met

[in] Follow-up entry: `GGGUACAUCGCGGCCGCCACUUAUGUAAAUACAUGAGGAUCACCCAUGUCGAUGGAGACAUCGGAGAGGACCGGGUGAUGUACCG`
[out] Criterion met

[in] What do you have for ACAUUAGCCACGGCCGCCACUGCCUUAUGAUUAUAAGGAUUAAUGAACAUGAGGAUCACCCAUGUCAGGACCGGGUGCCUACCAU [SSTryp B #5] ?
[out] Criterion not met

[in] Query UCAGAUGAGGCGGCCGCCACUCGCGGAUAACGAUAGAUUAACAUGAGGAUCACCCAUGUGUCAUGGAGGACCGGGCCCAUGACAU [kjmullin] next
[out] Criterion not met

[in] Next entry: AAUACCGGUCCUCGAAGUGAUCCUCAUGAACGAGGACCGGUACGGCCGCCACUCGAUAACAUGAGGAUCACCCAUGUAAUAAUAA [|T'-M'-Trp-Ms2|_Design4]
[out] Criterion met

[in] UCGGGCAGAGCGGCCGCCACUGUUUGGCGUGCGGAUGACGGAACAUGAGGAUCACCCAUGUUGAUUAGGACCGGGCUUGCGGAGA [qpqullin] ?
[out] Criterion not met

[in] Further, for AGUUACAUGAGGAUCACCCAUGUCCGGUUGCGAGGACCGGUACGGCCGCCACUCGGGUACAUCCCAGAAAAUACUGAAUGCCUGC [theeternabot_sameState_MS2_Trp_A_15] ?
[out] Criterion met

[in] Would you mind doing CCUCAUGAACAUGAGGAUCACCCAUGUACACGAGGACCGGUACGGCCGCCACUCGAAUAAGCUAAAUAUAAAUAAUAAUAAUAGC [5' end split MS2] as well?
[out] Criterion not met
